// values below are reported half-life
Test Description: Half life in C57BL/6 mouse at 50 mg/kg, po and 2 mg/kg, iv
Format: ADME, organism-based
Conditions: in vivo
Be sure to follow the number with its unit.

Completed entries (count: 4):
Cc1cc(F)cc(C)c1COc1ccc2c(-c3ccsc3)cc(C(=O)O)cc2c1 2.7 h
O=C(O)c1cc(-c2ccsc2)c2ccc(-c3ccc(OC(F)(F)F)cc3)cc2c1 1.1 h
O=C(O)c1cc2cc(-c3ccc(OC(F)(F)F)cc3)ccc2c(-c2ccsc2)c1F 4.3 h
O=C(O)c1cc(-c2cscc2C(O)(C(F)(F)F)C(F)(F)F)c2ccc(-c3ccc(OC(F)(F)F)cc3)cc2c1 4.1 h

Exam item: Could you share which half-life value was measured for "O=C(O)c1cc2cc(-c3ccc(OC(F)(F)F)cc3)ccc2c(-c2ccsc2)c1O" ?
Marked response: 13 h

Exam item: // query: "O=C(O)c1cc(-c2ccc([C@@H](O)C(F)F)cc2)c2ccc(-c3ccc(C(F)(F)F)cc3)cc2c1"
Marked response: 3 h

Exam item: // query: "CS(=O)(=O)c1cscc1-c1cc(C(=O)O)cc2cc(-c3ccc(OC(F)(F)F)cc3)ccc12"
Marked response: 3.2 h
